Reference source: patent US4604397A

pIC50 reference
assay.system: presynaptic dopamine receptor
measurement.notes: dopamine binding assay in vitro: displacement of 3H-ADTN from calf-caudate nucleus membranes
run.parameters: 0.2 nM 3H-ADTN, 60 minutes at 25° C.
pIC50: −log10 of the molar value. Counter-ions that a name gives are not always drawn.
parameter: pIC50

molecule: CCCCN1CCC[C@@H]2c3cccc(O)c3OC[C@H]21 (relative stereo) [hydrochloride]
reported.measurement: ~7.70

molecule: CCCN1CCC[C@@H]2c3cccc(O)c3OC[C@H]21 (relative stereo) [hydrochloride]
reported.measurement: ~7.22

molecule: CCCN1CCC[C@@H]2c3cc(O)ccc3OC[C@H]21.Cl (relative stereo) [hydrochloride]
reported.measurement: ~7.52

molecule: CCCN1CCC=C2c3cc(O)ccc3SCC21 (stereo not shown) [hydrochloride]
reported.measurement: ~8.00

----------
assay.system: serotonin receptor (Bos taurus, UniProt F1MGM3)
Sequence (F1MGM3 1-403): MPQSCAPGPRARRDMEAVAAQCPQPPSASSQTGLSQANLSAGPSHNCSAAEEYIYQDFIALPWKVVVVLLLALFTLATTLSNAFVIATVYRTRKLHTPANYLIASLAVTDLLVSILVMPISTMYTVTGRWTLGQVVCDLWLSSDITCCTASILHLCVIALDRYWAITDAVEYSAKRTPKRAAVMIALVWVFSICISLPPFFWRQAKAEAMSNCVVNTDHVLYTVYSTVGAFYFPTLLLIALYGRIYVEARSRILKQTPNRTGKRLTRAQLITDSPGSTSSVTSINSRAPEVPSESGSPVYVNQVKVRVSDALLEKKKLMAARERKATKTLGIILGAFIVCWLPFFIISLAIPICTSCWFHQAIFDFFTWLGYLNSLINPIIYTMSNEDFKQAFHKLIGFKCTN
Where a name gives a salt, the structure may show the parent alone.

compound: COc1cccc2c1OC[C@@H]1[C@@H]2CCCN1C (relative stereo) [hydrochloride]
assay.system: serotonin receptor (Bos taurus, UniProt F1MGM3)
IC50: ~80 nM
//
compound: CN1CCC[C@@H]2c3c(O)cccc3OC[C@H]21 (relative stereo) [hydrochloride]
assay.system: serotonin receptor (Bos taurus, UniProt F1MGM3)
IC50: ~400 nM
//
compound: CCCN1CCC[C@@H]2c3c(OC)cccc3OC[C@H]21 (relative stereo) [hydrochloride]
assay.system: serotonin receptor (Bos taurus, UniProt F1MGM3)
IC50: ~20 nM
//
compound: COc1c(Br)ccc2c1OC[C@@H]1[C@@H]2CCCN1C.Cl (relative stereo) [hydrochloride]
assay.system: serotonin receptor (Bos taurus, UniProt F1MGM3)
IC50: ~20 nM
